Form field: log10(IC50) (one value per entry).
target: thromboxane A2 receptors (TPα) of human platelets (Homo sapiens, UniProt P21731); construct: endogenous in cells; host or cells: human platelets; experiment: Binding test: displacement of [3H]SQ-29.548 from human platelet thromboxane A2 receptors
Sequence (P21731 whole entry): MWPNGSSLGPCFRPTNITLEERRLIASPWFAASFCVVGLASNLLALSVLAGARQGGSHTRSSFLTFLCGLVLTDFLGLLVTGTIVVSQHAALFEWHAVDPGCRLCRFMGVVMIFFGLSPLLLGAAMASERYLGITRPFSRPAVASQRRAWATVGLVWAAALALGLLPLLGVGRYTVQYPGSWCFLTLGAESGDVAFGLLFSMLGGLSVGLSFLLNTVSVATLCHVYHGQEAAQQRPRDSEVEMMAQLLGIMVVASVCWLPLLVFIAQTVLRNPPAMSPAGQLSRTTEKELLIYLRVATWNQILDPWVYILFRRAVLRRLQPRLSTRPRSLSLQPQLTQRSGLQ
All values: base-10 log of IC50 in nM.

compound=CCCNC(=O)NS(=O)(=O)c1cc([N+](=O)[O-])ccc1NC1CCCCC1 target_entity="thromboxane A2 receptors (TPα) of human platelets (Homo sapiens, UniProt P21731)" result_number=1.76
compound=Cc1cccc(Nc2ccc([N+](=O)[O-])cc2S(=O)(=O)NC(=O)NC(C)C)c1C target_entity="thromboxane A2 receptors (TPα) of human platelets (Homo sapiens, UniProt P21731)" result_number=0.30
compound=Cc1cccc(Nc2ccc([N+](=O)[O-])cc2S(=O)(=O)NC(=NC#N)N2CCCCCC2)c1 target_entity="thromboxane A2 receptors (TPα) of human platelets (Homo sapiens, UniProt P21731)" result_number=1.38

Shift focus to the following entry.
Task: Record lookup: for thromboxane A2 receptors (TPα) of human platelets (Homo sapiens, UniProt P21731), what log10(IC50) belongs to CC(C)(C)NC(=O)NS(=O)(=O)c1cc([N+](=O)[O-])ccc1NC1CC2CCC1C2 (centres unmarked) ?
Output: 0.53
